This collection of values is drawn from PubChem BioAssay AID2060505.

# Tested on: 633275-114-R-J1-PDC complex spheroids, viability;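 note: spheroids exposed to the agents for seven days; percent of DMSO vehicle control viability which is 100%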
# assay.protocol: Anticancer human tumor 633275-114-R-J1-PDC patient-derived endometrial adenocarcinoma cell line growth inhibition [GQUAD]
# experimental.context: second compound 0.1 µM; first compound 1 µM; stronger effect = lower value
readout.name: viability, T/C (%)
Provide the reading as a plain figure in %.

CC(=O)O[C@H]1C(=O)[C@@]2(C)[C@H]([C@H](OC(=O)c3ccccc3)[C@]3(O)C[C@H](OC(=O)[C@H](O)[C@@H](NC(=O)c4ccccc4)c4ccccc4)C(C)=C1C3(C)C)[C@]1(OC(C)=O)CO[C@@H]1C[C@@H]2O + CN(C)c1ccc(Nc2c3ccc(NC(=O)CCN4CCCC4)cc3nc3cc(NC(=O)CCN4CCCC4)ccc23)cc1 : 18.9

Prompt: Entry CC1COCCN1c1cc(C2(O)CC3CCC(C2)O3)c2cnn(-c3ccn[nH]3)c2n1 (stereo unspecified) + Cc1[nH]c2ccc(F)cc2c1-c1nc2c3cccnc3c3ncccc3c2[nH]1 : reported viability, T/C = ?
Response: 20.7

Prompt: Same question, CC1COCCN1c1cc(C2(S(C)(=N)=O)CC2)nc(-c2ccnc3[nH]ccc23)n1 (stereo unspecified) + Cc1[nH]c2ccc(F)cc2c1-c1nc2c3cccnc3c3ncccc3c2[nH]1 this time
Response: 78.5

Prompt: Try this compound too: CC1COCCN1c1cc(C2(O)CC3CCC(C2)O3)c2cnn(-c3ccn[nH]3)c2n1 (stereo unspecified) + Cc1cnc(CNC(=O)c2c(=O)c3ccc(N4CCCN(C)CC4)nc3n3c2sc2ccccc23)cn1
Response: 17.5
